All values here come from PubChem BioAssay AID651677.

TESTED SYSTEM: Perilipin-5 (Homo sapiens) + 1-acylglycerol-3-phosphate O-acyltransferase ABHD5 (Homo sapiens) (UniProt Q00G26+Q8WTS1)
Sequence (Q00G26 whole entry, looked up): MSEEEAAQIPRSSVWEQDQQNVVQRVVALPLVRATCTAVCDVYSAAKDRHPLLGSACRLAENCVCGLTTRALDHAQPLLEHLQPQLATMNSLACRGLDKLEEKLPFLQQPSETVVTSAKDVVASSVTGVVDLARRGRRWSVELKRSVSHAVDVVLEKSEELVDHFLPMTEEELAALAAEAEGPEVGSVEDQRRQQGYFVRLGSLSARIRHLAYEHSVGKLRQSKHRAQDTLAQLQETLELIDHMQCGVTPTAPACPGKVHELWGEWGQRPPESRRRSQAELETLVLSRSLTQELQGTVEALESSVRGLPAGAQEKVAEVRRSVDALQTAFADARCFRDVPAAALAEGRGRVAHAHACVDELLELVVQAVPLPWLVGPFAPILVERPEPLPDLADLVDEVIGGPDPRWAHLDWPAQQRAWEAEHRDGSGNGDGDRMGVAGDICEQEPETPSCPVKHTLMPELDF
Sequence (Q8WTS1 whole entry, looked up): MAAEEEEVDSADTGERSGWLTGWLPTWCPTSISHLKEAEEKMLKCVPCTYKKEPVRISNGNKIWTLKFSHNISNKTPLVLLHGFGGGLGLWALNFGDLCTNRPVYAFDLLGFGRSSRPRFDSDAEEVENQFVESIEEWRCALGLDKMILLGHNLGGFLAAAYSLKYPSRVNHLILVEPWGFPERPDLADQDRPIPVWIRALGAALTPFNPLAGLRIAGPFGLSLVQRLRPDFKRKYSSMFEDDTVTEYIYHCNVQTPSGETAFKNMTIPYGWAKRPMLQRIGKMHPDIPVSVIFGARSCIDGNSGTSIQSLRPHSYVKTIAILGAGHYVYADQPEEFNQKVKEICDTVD
METHOD: ABHD5-PLIN5 interaction inhibitors, dose response, biochemical, luminescence (AID 651677)
Activity calls are given as the source filed them. The rule behind the calls is not given here.
Please answer using one outcome listed in true (1) for active, false (0) for inactive

Called result for "O=C(Cn1c(=O)n(Cc2ccco2)c(=O)c2c3c(sc21)CCCC3)Nc1ccccc1" false (0)

* * *

TESTED SYSTEM: Perilipin-5 (Homo sapiens) + 1-acylglycerol-3-phosphate O-acyltransferase ABHD5 (Homo sapiens) (UniProt Q00G26+Q8WTS1)
METHOD: ABHD5-PLIN5 interaction inhibitors, dose response, biochemical, luminescence (AID 651677)
Activity calls are given as the source filed them. How the calls were made is not given here.
Classes to choose from: true for active, false for inactive

INSERT INTO results (compound, category_label) VALUES
  ('Cc1ccc(O)c(C(=O)/C=C/c2ccc3c(c2)OCCCO3)c1', 'true'),
  ('COC(=O)c1cc(=O)n(-c2ccc(F)cc2)c(=Nc2ccc(F)cc2)s1', 'true');

I'd appreciate the recorded outcome for O=c1c(-c2ccco2)nc2ccccc2n1C(CCc1ccccc1)c1nc2ccccc2[nH]1 (stereo unspecified) from this test. true

Give the logged outcome of this assay for the following compound: "CN1CCC[C@@H]1CCO[C@](C)(c1ccccc1)c1ccc(Cl)cc1" false

State the result this test recorded for "COc1cc(/C=C/C(=O)c2ccc(Cl)s2)cc(OC)c1O" . true

I'd appreciate the recorded outcome for "CC1=CC(C)(C)Nc2ccc(OC(=O)CN3C(=O)CCC3=O)cc21" from this test. true
